# experiment summary: Long-term accelerated stability test (Test Example 3), sealed in aluminum foil bags
# Format: physicochemical
# assay setup: 25°C-60%RH, 3 months
Structures can show the parent of a compound that is named as a salt.
metric name: Purity (%)

{"molecule": "O=C(O)[C@@H](Cc1cccc(CN(CCOc2cccc(C[C@H](C(=O)O)[C@H]3CCNC3)c2)Cc2cccc(C[C@H](C(=O)O)[C@H]3CCNC3)c2)c1)[C@H]1CCNC1 [hydrochloride (1:1) crystal form e]", "result": "99.9%"}
{"molecule": "O=C(O)[C@@H](Cc1cccc(CN(CCOc2cccc(C[C@H](C(=O)O)[C@H]3CCNC3)c2)Cc2cccc(C[C@H](C(=O)O)[C@H]3CCNC3)c2)c1)[C@H]1CCNC1 [hydrochloride (1:1) crystal form a]", "result": "99.7%"}
{"molecule": "O=C(O)[C@@H](Cc1cccc(CN(CCOc2cccc(C[C@H](C(=O)O)[C@H]3CCNC3)c2)Cc2cccc(C[C@H](C(=O)O)[C@H]3CCNC3)c2)c1)[C@H]1CCNC1 [hydrochloride (1:1) amorphous form]", "result": "98.2%"}
{"molecule": "Cl.Cl.Cl.Cl.O=C(O)[C@@H](Cc1cccc(CN(CCOc2cccc(C[C@H](C(=O)O)[C@H]3CCNC3)c2)Cc2cccc(C[C@H](C(=O)O)[C@H]3CCNC3)c2)c1)[C@H]1CCNC1 [hydrochloride (1:4) amorphous form]", "result": "99.8%"}

* * *

# experiment summary: Long-term accelerated stability test (Test Example 3), sealed in aluminum foil bags
# Type: physicochemical
# assay setup: 40°C-75%RH, 14 days
Counter-ions that a name gives are not always drawn.
metric name: Crystal form

{"compound": "O=C(O)[C@@H](Cc1cccc(CN(CCOc2cccc(C[C@H](C(=O)O)[C@H]3CCNC3)c2)Cc2cccc(C[C@H](C(=O)O)[C@H]3CCNC3)c2)c1)[C@H]1CCNC1 [hydrochloride (1:1) crystal form a]", "metric name": "Crystal form", "result": "Unchanged"}
{"compound": "O=C(O)[C@@H](Cc1cccc(CN(CCOc2cccc(C[C@H](C(=O)O)[C@H]3CCNC3)c2)Cc2cccc(C[C@H](C(=O)O)[C@H]3CCNC3)c2)c1)[C@H]1CCNC1 [hydrochloride (1:1) crystal form e]", "metric name": "Crystal form", "result": "Unchanged"}
{"compound": "Cl.Cl.Cl.Cl.O=C(O)[C@@H](Cc1cccc(CN(CCOc2cccc(C[C@H](C(=O)O)[C@H]3CCNC3)c2)Cc2cccc(C[C@H](C(=O)O)[C@H]3CCNC3)c2)c1)[C@H]1CCNC1 [hydrochloride (1:4) amorphous form]", "metric name": "Crystal form", "result": "Unchanged"}

* * *

# experiment summary: Long-term accelerated stability test (Test Example 3), sealed in aluminum foil bags
# Format: physicochemical
# assay setup: 40°C-75%RH, 3 months
Counter-ions that a name gives are not always drawn.

{"compound": "O=C(O)[C@@H](Cc1cccc(CN(CCOc2cccc(C[C@H](C(=O)O)[C@H]3CCNC3)c2)Cc2cccc(C[C@H](C(=O)O)[C@H]3CCNC3)c2)c1)[C@H]1CCNC1 [hydrochloride (1:1) crystal form a]", "Crystal form": "Deliquescent"}
{"compound": "Cl.Cl.Cl.Cl.O=C(O)[C@@H](Cc1cccc(CN(CCOc2cccc(C[C@H](C(=O)O)[C@H]3CCNC3)c2)Cc2cccc(C[C@H](C(=O)O)[C@H]3CCNC3)c2)c1)[C@H]1CCNC1 [hydrochloride (1:4) amorphous form]", "Crystal form": "Deliquescent"}

Measured values drawn from patent EP4711355A1 for this set.
